- System: Streptococcus sp. 'group A'
- assay.explanation: Streptococcus pyogenes SK(-)GAS viability under kanamycin – luminescence, BacTiterGlo, confirmation, counter-screen for streptokinase expression inhibitor project, dose response (AID 1900)
- Type: functional, organism-based
Calls of active or inactive are those of the source. Rule as the data show it: actives have a measured EC50 and inactives only a lower limit.
Would you kindly list EC50 for each of these molecules?

For reference, reported EC50 for `Nc1nn2c(O)cc(-c3ccccc3)nc2c1N=Nc1ccccc1` stands at 1.67 µM (active)

For reference, reported EC50 for `O=c1c2c([N+](=O)[O-])cc([N+](=O)[O-])cc2sn1Cc1ccccc1` stands at 4.35 µM (active)

For reference, reported EC50 for `COc1ccc(C(=O)NC(=S)NNC(=O)c2c(-c3ccccc3)noc2C)cc1OC` stands at 0.62 µM (active)
